Value source: patent US4616038A

Target: renal dipeptidase (E.C.3.4.13.11) (Sus scrofa)
Construct: solubilized preparation of dipeptidase isolated from hog kidneys; from tissue; host or cells: hog kidney
Sequence (P22412 17-409): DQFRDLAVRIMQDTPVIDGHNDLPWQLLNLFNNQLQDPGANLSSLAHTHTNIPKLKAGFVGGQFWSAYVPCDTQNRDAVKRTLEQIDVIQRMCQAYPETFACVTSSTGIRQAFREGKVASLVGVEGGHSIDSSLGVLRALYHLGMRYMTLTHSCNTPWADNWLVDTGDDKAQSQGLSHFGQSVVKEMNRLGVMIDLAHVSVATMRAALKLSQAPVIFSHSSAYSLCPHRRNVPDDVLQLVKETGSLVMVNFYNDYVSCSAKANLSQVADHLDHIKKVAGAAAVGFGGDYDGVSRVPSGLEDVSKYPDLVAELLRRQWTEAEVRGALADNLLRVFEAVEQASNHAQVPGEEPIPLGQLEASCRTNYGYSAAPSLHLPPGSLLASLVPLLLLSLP
Assay: Inhibition of glycyldehydrophenylalanine (GDP) hydrolysis by renal dipeptidase in vitro
Assay type: biochemical, pig (hog)
Conditions: concentration producing 50% inhibition; substrate GDP 0.05 mM; pH 7.1; 37° C.; read-out: Ki
Flag rule - Ki less than 1000 nM flags Condition met; the remaining entries get Condition not met.

INSERT INTO assay_data (compound, assigned_label) VALUES
  ('CC1(C)CC1C(=O)N/C(=C\CCCCC[N+](C)(C)C)C(=O)[O-] (centres unmarked)', 'Condition not met'),
  ('CC/C=C(\NC(=O)C1CC1(C)C)C(=O)O (centres unmarked)', 'Condition met'),
  ('COCCC/C=C(\NC(=O)C1CC1(C)C)C(=O)O (centres unmarked)', 'Condition met'),
  ('C/C=C(\NC(=O)CC(C)CCOC)C(=O)O (centres unmarked)', 'Condition not met'),
  ('C/C=C(\NC(=O)CCCCCBr)C(=O)O', 'Condition not met'),
  ('CCCCC/C=C(\NC(=O)CC(C)C)C(=O)O', 'Condition not met'),
  ('COCC/C=C(\NC(=O)C1CC1(C)C)C(=O)O (centres unmarked)', 'Condition met'),
  ('CC1(C)CC1C(=O)N/C(=C\CCS(C)(=O)=O)C(=O)O (centres unmarked)', 'Condition met'),
  ('C/C=C(\NC(=O)CCCC)C(=O)O', 'Condition not met'),
  ('C/C=C(\NC(=O)CCC)C(=O)O', 'Condition not met'),
  ('CC(=N)NCCCCC/C=C(\NC(=O)C1CC1(C)C)C(=O)O (centres unmarked)', 'Condition met');
